# Assayed Target: C-C chemokine receptor type 4 (Homo sapiens); also: in other assays of this panel Not Active means under 50% inhibition at 10 µM
# Sequence (P51679 whole entry): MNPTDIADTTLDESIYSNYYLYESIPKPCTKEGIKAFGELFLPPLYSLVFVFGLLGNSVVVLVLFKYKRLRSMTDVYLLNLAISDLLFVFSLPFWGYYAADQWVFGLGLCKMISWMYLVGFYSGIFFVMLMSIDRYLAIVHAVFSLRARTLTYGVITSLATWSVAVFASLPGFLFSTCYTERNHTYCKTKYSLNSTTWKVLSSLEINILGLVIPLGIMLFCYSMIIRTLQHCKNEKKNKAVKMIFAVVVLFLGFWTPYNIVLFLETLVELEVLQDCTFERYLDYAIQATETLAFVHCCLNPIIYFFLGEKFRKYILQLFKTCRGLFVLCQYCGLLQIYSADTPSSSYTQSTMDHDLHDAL
# Assay type: cell membranes, Chem-1, Membrane
# Stated Conditions: chem-1
Measured Quantity: IC50

>  <Substance>
LIPOPOLYSACCHARIDE E. COLI O55:B5

>  <Result>
Not Active

$$$$
>  <Substance>
CADMIUM ACETATE

>  <Result>
Not Active

$$$$
>  <Substance>
SODIUM NITROPRUSSIDE

>  <Result>
Not Active

$$$$
>  <Substance>
LEAD (II) ACETATE

>  <Result>
Not Active

$$$$

---

# Assayed Target: 5-hydroxytryptamine receptor 2C (Homo sapiens, UniProt P28335)
# Sequence (P28335 whole entry): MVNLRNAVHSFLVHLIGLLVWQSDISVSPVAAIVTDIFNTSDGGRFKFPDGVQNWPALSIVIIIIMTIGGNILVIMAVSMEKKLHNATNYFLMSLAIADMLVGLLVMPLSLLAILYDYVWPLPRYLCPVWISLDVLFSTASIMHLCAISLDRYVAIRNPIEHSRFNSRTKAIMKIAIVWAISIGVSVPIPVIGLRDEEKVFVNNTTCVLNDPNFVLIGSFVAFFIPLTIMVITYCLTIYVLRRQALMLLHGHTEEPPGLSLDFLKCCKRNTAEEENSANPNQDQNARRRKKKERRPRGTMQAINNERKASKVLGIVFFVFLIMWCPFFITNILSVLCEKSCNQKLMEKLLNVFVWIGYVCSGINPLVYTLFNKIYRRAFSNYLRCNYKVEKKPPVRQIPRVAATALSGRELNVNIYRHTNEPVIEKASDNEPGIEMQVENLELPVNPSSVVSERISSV
# Procedure Details: DRUGMATRIX: Serotonin (5-Hydroxytryptamine) 5-HT2C radioligand binding (ligand: [3H] Mesulergine)
# Assay type: cell membranes, CHO-K1, Membrane
# Stated Conditions: cho-k1; Not Active = under 50% inhibition at 10 µM

>  <Substance>
LEAD (II) ACETATE

>  <IC50>
Not Active

$$$$
>  <Substance>
LIPOPOLYSACCHARIDE E. COLI O55:B5

>  <IC50>
Not Active

$$$$
>  <Substance>
CADMIUM ACETATE

>  <IC50>
Not Active

$$$$
>  <Substance>
SODIUM NITROPRUSSIDE

>  <IC50>
Not Active

$$$$

---

# Assayed Target: Sigma non-opioid intracellular receptor 1 (Homo sapiens, UniProt Q99720)
# Sequence (Q99720 whole entry): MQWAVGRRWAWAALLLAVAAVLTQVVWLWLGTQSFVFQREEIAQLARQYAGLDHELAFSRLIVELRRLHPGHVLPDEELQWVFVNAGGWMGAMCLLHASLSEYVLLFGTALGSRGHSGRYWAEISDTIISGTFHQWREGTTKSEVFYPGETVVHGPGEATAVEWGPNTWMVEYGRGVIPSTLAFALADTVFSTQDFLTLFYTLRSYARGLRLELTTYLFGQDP
# Procedure Details: DRUGMATRIX: Sigma1 radioligand binding (ligand: [3H] Haloperidol)
# Assay type: cell membranes, Jurkat, Membrane
# Stated Conditions: Not Active = under 50% inhibition at 10 µM; read-out: IC50
Criterion: IC50 strictly under 3000 nM. Met: fulfilled. Not met: not fulfilled.

Is IC50 of CN(Cc1ccc(C(C)(C)C)cc1)Cc1cccc2ccccc12 strictly below 3000 nM?
not fulfilled

Is IC50 of CN(C)CCCN1c2ccccc2Sc2ccccc21 strictly below 3000 nM?
fulfilled

Is IC50 of CN1CCN(CCCN2c3ccccc3Sc3ccc(Cl)cc32)CC1 strictly below 3000 nM?
fulfilled

Is IC50 of CC(C)N1CCN(c2ccc(OCC3COC(Cn4cncn4)(c4ccc(Cl)cc4Cl)O3)cc2)CC1 (stereo not given) strictly below 3000 nM?
fulfilled

Is IC50 of C1CCC(C(CC2CCCCN2)C2CCCCC2)CC1 (stereo not given) strictly below 3000 nM?
fulfilled

---

# Assayed Target: C-C chemokine receptor type 5 (Homo sapiens, UniProt P51681); also: in other assays of this panel Not Active means under 50% inhibition at 10 µM
# Sequence (P51681 whole entry): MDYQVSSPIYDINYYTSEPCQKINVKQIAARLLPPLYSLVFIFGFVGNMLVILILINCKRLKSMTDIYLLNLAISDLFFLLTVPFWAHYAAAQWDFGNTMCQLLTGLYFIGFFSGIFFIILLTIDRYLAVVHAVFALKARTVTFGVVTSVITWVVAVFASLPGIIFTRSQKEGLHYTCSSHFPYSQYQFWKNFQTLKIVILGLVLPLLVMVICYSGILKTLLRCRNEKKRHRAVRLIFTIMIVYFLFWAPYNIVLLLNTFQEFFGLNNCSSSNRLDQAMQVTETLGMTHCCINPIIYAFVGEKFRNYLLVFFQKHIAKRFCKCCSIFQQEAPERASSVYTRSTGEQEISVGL
# Assay type: cell membranes, Membrane
# Stated Conditions: hek293
*1 amine or outer side, *2 acyl side, *3 side chain or, on linkers, in order; H or OH if unused. Where a SMILES comes first, the peptide text is derived from it. Bridges are numbered along the chain shown (N, C = ends). Roman numbers before positions name the chains, in order. [ ]: non-standard residue; d: D form. Actinocin(1to9) = Cc1c2oc3c(C)ccc(C(=O)[*:2])c3nc-2c(C(=O)[*:1])c(N)c1=O; NMeV = CN[C@H](C(=O)O)C(C)C; Sar = CNCC(=O)O
Measured Quantity: IC50

Take a look at these entries with their results.
>  <Compound>
CC[C@@]1(O)C[C@H](O[C@H]2C[C@H](N(C)C)[C@H](O[C@H]3C[C@H](O)[C@H](O[C@H]4CCC(=O)[C@H](C)O4)[C@H](C)O3)[C@H](C)O2)c2c(cc3c(c2O)C(=O)c2c(O)cccc2C3=O)[C@H]1C(=O)OC

>  <Assayed Target>
C-C chemokine receptor type 5 (Homo sapiens, UniProt P51681); also: in other assays of this panel Not Active means under 50% inhibition at 10 µM

>  <IC50>
Not Active

$$$$
>  <Compound>
Cc1c2oc3c(C)ccc(C(=O)N[C@@H]4C(=O)N[C@H](C(C)C)C(=O)N5CCC[C@H]5C(=O)N(C)CC(=O)N(C)[C@@H](C(C)C)C(=O)O[C@@H]4C)c3nc-2c(C(=O)N[C@@H]2C(=O)N[C@H](C(C)C)C(=O)N3CCC[C@H]3C(=O)N(C)CC(=O)N(C)[C@@H](C(C)C)C(=O)O[C@@H]2C)c(N)c1=O [DACTINOMYCIN] (I: T[dV]P[Sar][NMeV] / II: T[dV]P[Sar][NMeV]; ester I:1-I:C, II:1-II:C; linker I:N-II:N via Actinocin(1to9))

>  <Assayed Target>
C-C chemokine receptor type 5 (Homo sapiens, UniProt P51681); also: in other assays of this panel Not Active means under 50% inhibition at 10 µM

>  <IC50>
Not Active

$$$$
>  <Compound>
CN(C)C(=O)Oc1cc(OC(=O)N(C)C)cc(C(O)CNC(C)(C)C)c1 (configuration not stated)

>  <Assayed Target>
C-C chemokine receptor type 5 (Homo sapiens, UniProt P51681); also: in other assays of this panel Not Active means under 50% inhibition at 10 µM

>  <IC50>
Not Active

$$$$
>  <Compound>
Cc1ccc(/N=C/N(C)/C=N/c2ccc(C)cc2C)c(C)c1

>  <Assayed Target>
C-C chemokine receptor type 5 (Homo sapiens, UniProt P51681); also: in other assays of this panel Not Active means under 50% inhibition at 10 µM

>  <IC50>
Not Active

$$$$
>  <Compound>
O=NN(CCCl)C(=O)NC1CCCCC1

>  <Assayed Target>
C-C chemokine receptor type 5 (Homo sapiens, UniProt P51681); also: in other assays of this panel Not Active means under 50% inhibition at 10 µM

>  <IC50>
Not Active

$$$$

Please look at the items below and tell me IC50 for each one, in order.
1. CC1(C)S[C@@H]2[C@H](NC(=O)Cc3ccccc3)C(=O)N2[C@H]1C(=O)O
2. CCCOc1ccccc1-c1nc2nn[nH]c2c(=O)[nH]1

1: Not Active; 2: Not Active

---

# Procedure Details: DRUGMATRIX: Imidazoline I2, Central radioligand binding (ligand: [3H] Idazoxan)
# Type: cell membranes, Rattus norvegicus, Wistar, Cerebral cortex, Membrane
# Stated Conditions: Not Active = under 50% inhibition at 10 µM
Measured Quantity: IC50

Take a look at these entries with their results.
>  <Compound>
C1CCC(C(CC2CCCCN2)C2CCCCC2)CC1 (stereo not given) [PERHEXILINE]

>  <IC50>
Not Active

$$$$
>  <Compound>
Nc1nc(N)nc(-c2cc(Cl)ccc2Cl)n1.O=C(O)/C=C\C(=O)O [IRSOGLADINE MALEATE]

>  <IC50>
Not Active

$$$$
>  <Compound>
CNCCc1ccccn1 [BETAHISTINE]

>  <IC50>
Not Active

$$$$
>  <Compound>
CCCCN1CCCC[C@H]1C(=O)Nc1c(C)cccc1C [LEVOBUPIVACAINE]

>  <IC50>
Not Active

$$$$
>  <Compound>
CSc1ccc(/C=C2/C(C)=C(CC(=O)O)c3cc(F)ccc32)cc1 [SULINDAC SULFIDE]

>  <IC50>
Not Active

$$$$

Please look at the items below and tell me IC50 for each one, in order.
1. COc1c(C)c2c(c(O)c1C/C=C(\C)CCC(=O)O)C(=O)OC2 [MYCOPHENOLIC ACID]
2. COc1ccc(C[C@H]2NC[C@H](O)[C@H]2OC(C)=O)cc1 [ANISOMYCIN]
3. CC(NC(C)(C)C)C(=O)c1cccc(Cl)c1 (stereo not given) [BUPROPION]

1. Not Active
2. Not Active
3. Not Active

Please look at the items below and tell me IC50 for each one, in order.
1. O=NN(CCCl)C(=O)NC1CCCCC1 [LOMUSTINE]
2. CCOC(=O)C1=C(COCCN)NC(C)=C(C(=O)OC)C1c1ccccc1Cl (stereo not given) [AMLODIPINE]

1: Not Active; 2: Not Active

---

# Assayed Target: C-C chemokine receptor type 2 (Homo sapiens, UniProt P41597); also: in other assays of this panel Not Active means under 50% inhibition at 10 µM
# Sequence (P41597 whole entry): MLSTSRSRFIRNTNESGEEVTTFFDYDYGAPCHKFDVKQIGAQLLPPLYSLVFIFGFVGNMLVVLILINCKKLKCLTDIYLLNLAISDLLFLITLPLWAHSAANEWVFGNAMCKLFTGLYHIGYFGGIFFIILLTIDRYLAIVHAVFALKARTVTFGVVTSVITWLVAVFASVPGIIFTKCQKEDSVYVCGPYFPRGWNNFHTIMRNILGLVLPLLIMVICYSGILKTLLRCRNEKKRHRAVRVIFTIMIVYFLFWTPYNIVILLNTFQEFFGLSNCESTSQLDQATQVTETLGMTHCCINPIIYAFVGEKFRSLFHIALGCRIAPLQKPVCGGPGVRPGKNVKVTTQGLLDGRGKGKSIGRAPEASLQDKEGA
# Type: cell membranes, CHO-K1, Membrane
# Stated Conditions: cho-k1

>  <Substance>
LEAD (II) ACETATE

>  <IC50>
Not Active

$$$$
>  <Substance>
SODIUM NITROPRUSSIDE

>  <IC50>
Not Active

$$$$
>  <Substance>
CADMIUM ACETATE

>  <IC50>
Not Active

$$$$
>  <Substance>
LIPOPOLYSACCHARIDE E. COLI O55:B5

>  <IC50>
Not Active

$$$$

---

# Procedure Details: DRUGMATRIX: Sigma2 radioligand binding (ligand: [3H] Ifenprodil)
# Format: cell membranes, Rattus norvegicus, Wistar, Brain, Membrane
# Stated Conditions: Not Active = under 50% inhibition at 10 µM; read-out: IC50
Measured Quantity: pIC50
Numbers only, as −log10 of the molar value.

Take a look at these entries with their results.
>  <Compound>
CN(C)CCCN1c2ccccc2Sc2ccccc21

>  <pIC50>
5.60

$$$$
>  <Compound>
CC(NC(C)(C)C)C(=O)c1cccc(Cl)c1 (configuration not stated)

>  <pIC50>
5.64

$$$$
>  <Compound>
CN(C)CCCN1c2ccccc2Sc2ccc(Cl)cc21

>  <pIC50>
5.57

$$$$

Please look at the items below and tell me pIC50 for each one, in order.
1. CC(C)N1CCN(c2ccc(OCC3COC(Cn4cncn4)(c4ccc(Cl)cc4Cl)O3)cc2)CC1 (configuration not stated)
2. CN(Cc1ccc(C(C)(C)C)cc1)Cc1cccc2ccccc12
3. c1ccc([C@H]2CN3CCSC3=N2)cc1
4. O=C(CCCN1CC=C(n2c(=O)[nH]c3ccccc32)CC1)c1ccc(F)cc1

1. 6.50
2. 6.59
3. 5.36
4. 5.48
